# System: Mycobacterium tuberculosis
# testDescription: Antitubercular activity against Multidrug-resistant Mycobacterium tuberculosis after 7 days by resazurin assay
# Format: functional
# experimentalConditions: 168 h
Reported MIC by item:

| smilesStr | assayReadout | observedResult |
| --- | --- | --- |
| Nc1nc(COC(=O)Cc2cccc(C(F)(F)F)c2)cs1 | MIC | 6.25 µg/mL |
| CO[C@H]1/C=C/O[C@@]2(C)Oc3c(C)c(O)c4c(O)c(c(/C=N/N5CCN(C)CC5)c(O)c4c3C2=O)NC(=O)/C(C)=C\C=C\[C@H](C)[C@H](O)[C@@H](C)[C@@H](O)[C@@H](C)[C@H](OC(C)=O)[C@@H]1C | MIC | 25 µg/mL |
| Nc1nc(COC(=O)c2cc(F)cc(C(F)(F)F)c2)cs1 | MIC | > 50 µg/mL |
| Nc1nc(COC(=O)c2c(F)cccc2Cl)cs1 | MIC | 6.25 µg/mL |
| Nc1nc(COC(=O)c2ccc3ccccc3c2)cs1 | MIC | > 50 µg/mL |
| Nc1nc(COC(=O)c2c(Cl)cc(Cl)cc2Cl)cs1 | MIC | > 50 µg/mL |

// MIC value for N#CCCc1cccc(C(=O)OCc2csc(N)n2)c1 : 6.25 µg/mL

// MIC value for Nc1nc(COC(=O)c2cccc([N+](=O)[O-])c2Cl)cs1 : 6.25 µg/mL

// MIC value for Nc1nc(COC(=O)c2cccs2)cs1 : > 50 µg/mL

// MIC value for N#Cc1cccc(C(=O)OCc2csc(N)n2)n1 : > 50 µg/mL

// MIC value for Nc1nc(COC(=O)Cc2ccccc2OC(F)(F)F)cs1 : > 50 µg/mL

// MIC value for NNC(=O)c1ccncc1 : 12.5 µg/mL
